Please provide measured EC50 for the entries that follow.
- target under test: wild-type and mutant CD3 binding domains harbored within TROP2 TCE constructs
- measurement protocol: ELISA binding of peptide masks to wild-type and mutated TROP2 TCEs
- test parameters: read-out: TCE-15 (3087) (W112A) EC50; captured biotinylated peptide or CD3-biotin; binding of TCE-15, anti-CD3 W112A
Reply numerically in µM, unit not repeated.

Report EC50, nothing else, for this compound: CC(C)C[C@@H]1NC(=O)[C@H](CC(=O)O)NC(=O)[C@H](C(C)C)NC(=O)[C@H](CC(C)C)NC(=O)[C@@H](NC(=O)[C@H](CCC(=O)O)NC(=O)[C@@H](N)CO)CSSC[C@@H](C(=O)N[C@@H](Cc2ccc(O)cc2)C(=O)N[C@@H](Cc2c[nH]c3ccccc23)C(=O)O)NC(=O)[C@@H]2CCCN2C(=O)[C@H](CC(=O)O)NC(=O)[C@H](CO)NC(=O)[C@H](CCC(N)=O)NC1=O [Peptide-5]
0.0482

Provide only the value of recorded EC50 for CC(C)C[C@@H]1NC(=O)[C@@H](NC(=O)[C@H](CCC(N)=O)NC(=O)[C@H](CO)NC(=O)CN)CSSC[C@@H](C(=O)N2CCC[C@H]2C(=O)N[C@@H](Cc2ccc(O)cc2)C(=O)O)NC(=O)[C@H](C(C)C)NC(=O)[C@H](CCC(=O)O)NC(=O)[C@H](Cc2c[nH]c3ccccc23)NC(=O)[C@H](CCC(=O)O)NC(=O)[C@@H]2CCCN2C(=O)CNC1=O [Peptide-2]
0.0264

Provide EC50 value for the following compound: CSCC[C@H](NC(=O)[C@@H]1CSSC[C@H](NC(=O)[C@H](Cc2ccc(O)cc2)NC(=O)[C@@H](N)C(C)C)C(=O)NCC(=O)N2CCC[C@H]2C(=O)N[C@@H](CCC(=O)O)C(=O)N[C@@H](Cc2ccccc2)C(=O)N[C@@H](CC(=O)O)C(=O)N[C@@H](CCC(=O)O)C(=O)N[C@@H](CO)C(=O)N[C@@H](C(C)C)C(=O)NCC(=O)N1)C(=O)O [Peptide-3]
0.0105

###

- target under test: wild-type and mutant CD3 binding domains harbored within TROP2 TCE constructs
- measurement protocol: ELISA binding of peptide masks to wild-type and mutated TROP2 TCEs
- test parameters: read-out: TCE-3 (3075) (R100A) EC50; captured biotinylated peptide or CD3-biotin; binding of TCE-3, anti-CD3 R100A
Exercise: for every item that follows, state its recorded pEC50.
API: returns pEC50 as number; meaning -log10 of concentration in mol/L.

Find the measured pEC50 of CC(C)C[C@@H]1NC(=O)[C@@H](NC(=O)[C@H](CCC(N)=O)NC(=O)[C@H](CO)NC(=O)[C@H](C)N)CSSC[C@@H](C(=O)N2CCC[C@H]2C(=O)N[C@@H](Cc2ccc(O)cc2)C(=O)O)NC(=O)[C@H](C(C)C)NC(=O)[C@H](CCC(=O)O)NC(=O)[C@H](Cc2c[nH]c3ccccc23)NC(=O)[C@H](CCC(=O)O)NC(=O)[C@@H]2CCCN2C(=O)CNC1=O [Peptide-10] with wild-type and mutant CD3 binding domains harbored within TROP2 TCE constructs as test system.
9.17

Write down the reported pEC50 (system: wild-type and mutant CD3 binding domains harbored within TROP2 TCE constructs) of CC(C)C[C@@H]1NC(=O)[C@@H](NC(=O)[C@H](C)NC(=O)[C@H](CO)NC(=O)CN)CSSC[C@@H](C(=O)N2CCC[C@H]2C(=O)N[C@@H](Cc2ccc(O)cc2)C(=O)O)NC(=O)[C@H](C(C)C)NC(=O)[C@H](CCC(=O)O)NC(=O)[C@H](Cc2c[nH]c3ccccc23)NC(=O)[C@H](CCC(=O)O)NC(=O)[C@@H]2CCCN2C(=O)CNC1=O [Peptide-11]
9.12

Quote pEC50 with test system wild-type and mutant CD3 binding domains harbored within TROP2 TCE constructs for CC(C)C[C@@H]1NC(=O)[C@@H](NC(=O)[C@H](CCC(N)=O)NC(=O)[C@H](CO)NC(=O)CN)CSSC[C@@H](C(=O)N2CCC[C@H]2C(=O)N[C@@H](Cc2ccc(O)cc2)C(=O)O)NC(=O)[C@H](C(C)C)NC(=O)[C@H](CCC(=O)O)NC(=O)[C@H](Cc2c[nH]c3ccccc23)NC(=O)[C@H](CCC(=O)O)NC(=O)[C@@H]2CCCN2C(=O)CNC1=O [Peptide-2]
9.24
